- TESTED_SYSTEM: Adrenergic receptor alpha-2 (Rattus norvegicus) (UniProt P22086+P19328+P22909)
- TEST_SUMMARY: Binding affinity for alpha-2 adrenergic receptor by displacement of [3H]clonidine at 10e-6 M from rat brain homogenate preparation
- Assay type: tissue-based
Could you please report measured Displacement for the items listed next?
Give the value in % but do not write % after it.

Ask: // Displacement lookup, key: COc1cc2nc(N3CCC(OCCOC(C)C)CC3)nc(N)c2cc1OC
Result: 73.4

Ask: Please look up its Displacement: CCOC(COC1CCN(c2nc(N)c3cc(OC)c(OC)cc3n2)CC1)c1ccccc1 (centres undefined)
Result: 84.5

Ask: What does the record list as Displacement for CCCCOCCOC1CCN(c2nc(N)c3cc(OC)c(OC)cc3n2)CC1 ?
Result: 76

Ask: Looking for the measured Displacement of COCCOC1CCN(c2nc(N)c3cc(OC)c(OC)cc3n2)CC1 , can you help?
Result: 53

Ask: Request the reported Displacement associated with COc1cc2nc(N3CCC(OCC(O)c4ccccc4)CC3)nc(N)c2cc1OC (centres undefined)
Result: 91

Ask: Which value of Displacement has been reported for COc1cc2nc(N3CCC(OCC(C)(C)OC)CC3)nc(N)c2cc1OC in the records?
Result: 75.7

Ask: Look at this compound and give its reported Displacement. CCOC(C)COC1CCN(c2nc(N)c3cc(OC)c(OC)cc3n2)CC1 (centres undefined)
Result: 74.3

Ask: Give its Displacement value. Item: CCOC(C)(COC1CCN(c2nc(N)c3cc(OC)c(OC)cc3n2)CC1)c1ccccc1 (centres undefined)
Result: 97.5

Ask: Sample CCOCCOC1CCN(c2nc(N)c3cc(OC)c(OC)cc3n2)CC1 — what was its Displacement?
Result: 65.3

Ask: I would be grateful if you could share the reported Displacement for COc1cc2nc(N3CCC(OCCOc4ccccc4)CC3)nc(N)c2cc1OC .
Result: 79.3

Ask: Sample COc1cc2nc(N3CCC(OCC(C)O)CC3)nc(N)c2cc1OC (centres undefined) — what was its Displacement?
Result: 55

Ask: Which Displacement value belongs to COc1cc2nc(N3CCC(OCC(C)(O)c4ccccc4)CC3)nc(N)c2cc1OC (centres undefined) ?
Result: 97

Ask: Reported Displacement, compound COc1cc2nc(N3CCC(OCC(C)OC)CC3)nc(N)c2cc1OC (centres undefined) : ____
Result: 68.7

Ask: Given the compound COc1cc2nc(N3CCC(OCC(C)(C)O)CC3)nc(N)c2cc1OC , what is its reported Displacement?
Result: 61.7

* * *

- TESTED_SYSTEM: Adrenergic receptor alpha-1 (Rattus norvegicus, UniProt P15823+P23944+P43140)
- TEST_SUMMARY: Binding affinity for alpha-1 adrenergic receptor by displacement of [3H]-prazosin from rat brain homogenate preparation
- Format: tissue-based
MEASURED_PROPERTY: Ki (nM)
Return type: number; implicit unit nM.

Ask: Recorded Ki for COCCOC1CCN(c2nc(N)c3cc(OC)c(OC)cc3n2)CC1 , please?
Result: 2.12

Ask: Please report the recorded Ki for CCOC(C)COC1CCN(c2nc(N)c3cc(OC)c(OC)cc3n2)CC1 (stereo unspecified) .
Result: 0.99

Ask: Param item = CCOCCOC1CCN(c2nc(N)c3cc(OC)c(OC)cc3n2)CC1 ; retrieve measured Ki.
Result: 1.81

Ask: What does the data say about its Ki? Entry: COc1cc2nc(N3CCC(OCC(C)OC)CC3)nc(N)c2cc1OC (stereo unspecified)
Result: 1.41

Ask: # input compound: COc1cc2nc(N3CCC(OCC(O)c4ccccc4)CC3)nc(N)c2cc1OC (stereo unspecified) ; wanted: its Ki
Result: 0.15

Ask: Find the recorded Ki belonging to CCCCOCCOC1CCN(c2nc(N)c3cc(OC)c(OC)cc3n2)CC1 and report it.
Result: 1.03

Ask: Quick check: Ki of COc1cc2nc(N3CCC(OCC(C)O)CC3)nc(N)c2cc1OC (stereo unspecified) ?
Result: 3.52

Ask: Need Ki, item CCOC(COC1CCN(c2nc(N)c3cc(OC)c(OC)cc3n2)CC1)c1ccccc1 (stereo unspecified)
Result: 0.52

Ask: Query (compound): CCOCC(OC1CCN(c2nc(N)c3cc(OC)c(OC)cc3n2)CC1)c1ccccc1 (stereo unspecified) ; field requested: Ki
Result: 10

Ask: Look up Ki for this compound: COc1cc2nc(N3CCC(OCCO)CC3)nc(N)c2cc1OC
Result: 2.2

Ask: // returns reported Ki for input COc1cc2nc(N3CCC(OCC(C)(C)OC)CC3)nc(N)c2cc1OC
Result: 1.14

Ask: Fill blank: measured Ki of the compound COc1cc2nc(N3CCC(OCC(C)(O)c4ccccc4)CC3)nc(N)c2cc1OC (stereo unspecified) is ____.
Result: 0.62

Ask: Report Ki for COc1cc2nc(N3CCC(OCCOc4ccccc4)CC3)nc(N)c2cc1OC please.
Result: 0.48

Ask: Consider the compound COc1cc2nc(N3CCC(OCC(C)(C)O)CC3)nc(N)c2cc1OC and give its measured Ki.
Result: 1.28

Ask: // query Ki value for entry CCOC(C)(COC1CCN(c2nc(N)c3cc(OC)c(OC)cc3n2)CC1)c1ccccc1 (stereo unspecified)
Result: 0.15

Ask: Ki lookup needed for COc1cc2nc(N3CCC(OCCOC(C)C)CC3)nc(N)c2cc1OC , thanks.
Result: 0.67
